Taken from patent US20240252488A1.

- System: FADD−/− Jurkat cells
- method summary: Necroptosis inhibition assay, TNF-α-induced necroptosis (CellTiter-Glo 2.0)
- Type: cell-based, human
- conditions used: compound 10 μM; TNF-α 15 ng/mL, FADD−/− Jurkat cells
measured property: Necroptosis inhibition assay (Rescue %) 10 μM

[
  {
    "compound": "Nc1ncc(-c2cnn(C3CCN(CC4CCN(CC5CCN(C(=O)c6ccc7c(c6)CN(C6CCC(=O)NC6=O)C7=O)CC5)CC4)CC3)c2)nc1C(=O)O[C@@H](C(=O)Nc1ccc(F)cc1)c1ccccc1 (stereo partly shown)",
    "observed measurement": "20.62%"
  },
  {
    "compound": "COc1ccc(C(=O)N2CCC(C(=O)N3CCC4(CC3)CC(N3CCC(CN5CCC(n6cc(-c7cnc(N)c(C(=O)O[C@@H](C(=O)Nc8ccc(F)cc8)c8ccccc8)n7)cn6)CC5)CC3)C4)CC2)cc1N1CCC(=O)NC1=O",
    "observed measurement": "39.79%"
  },
  {
    "compound": "Nc1ncc(-c2cnn(C3CCN(C4CC5(CCN(CC6CCN(C(=O)c7ccc8c(N9CCC(=O)NC9=O)coc8c7)CC6)CC5)C4)CC3)c2)nc1C(=O)O[C@@H](C(=O)Nc1ccc(F)cc1)c1ccccc1",
    "observed measurement": "−20.56%"
  },
  {
    "compound": "Nc1ncc(-c2cnn(C3CCN(C(=O)CC4CCN(C(=O)CCc5ccc6c(c5)C(=O)N(C5CCC(=O)NC5=O)C6=O)CC4)CC3)c2)nc1C(=O)O[C@@H](C(=O)Nc1ccc(F)cc1)c1ccccc1 (stereo partly shown)",
    "observed measurement": "29.42%"
  },
  {
    "compound": "Nc1ncc(-c2cnn(C3CCN(CCCN4CCN(C(=O)c5cccc(C(=O)NC6CCC(=O)NC6=O)c5)CC4)CC3)c2)nc1C(=O)O[C@@H](C(=O)Nc1ccc(F)cc1)c1ccccc1 (stereo partly shown)",
    "observed measurement": "29.40%"
  },
  {
    "compound": "Nc1ncc(-c2cnn(C3CCN(CC4CCN(c5cc6c(cc5F)C(=O)N(C5CCC(=O)NC5=O)C6=O)CC4)CC3)c2)nc1C(=O)O[C@@H](C(=O)Nc1ccc(F)cc1)c1ccccc1 (stereo partly shown)",
    "observed measurement": "17.07%"
  },
  {
    "compound": "Nc1ncc(-c2cnn(C3CCN(C(=O)CC4CCN(C(=O)C5CN(c6ccc7c(c6)C(=O)N(C6CCC(=O)NC6=O)C7=O)C5)CC4)CC3)c2)nc1C(=O)O[C@@H](C(=O)Nc1ccc(F)cc1)c1ccccc1 (stereo partly shown)",
    "observed measurement": "28.25%"
  },
  {
    "compound": "Nc1ncc(-c2cnn(C3CCN(CCCN4CCN(CC5CCN(c6ccc7c(c6)C(=O)N(C6CCC(=O)NC6=O)C7=O)CC5)CC4)CC3)c2)nc1C(=O)O[C@@H](C(=O)Nc1ccc(F)cc1)c1ccccc1 (stereo partly shown)",
    "observed measurement": "5.98%"
  },
  {
    "compound": "Nc1ncc(-c2cnn(C3CCN(C(=O)CCC4CCN(C(=O)CCc5ccc6c(c5)C(=O)N(C5CCC(=O)NC5=O)C6=O)CC4)CC3)c2)nc1C(=O)O[C@@H](C(=O)Nc1ccc(F)cc1)c1ccccc1 (stereo partly shown)",
    "observed measurement": "0.07%"
  },
  {
    "compound": "Nc1ncc(-c2cnn(C3CCN(C(=O)CCC4CCN(C(=O)CNc5cccc6c5C(=O)N(C5CCC(=O)NC5=O)C6=O)CC4)CC3)c2)nc1C(=O)O[C@@H](C(=O)Nc1ccc(F)cc1)c1ccccc1 (stereo partly shown)",
    "observed measurement": "35.74%"
  },
  {
    "compound": "Nc1ncc(-c2cnn(C3CCN(C(=O)CC4CCN(C(=O)CNc5ccc6nnn(C7CCC(=O)NC7=O)c(=O)c6c5)CC4)CC3)c2)nc1C(=O)O[C@@H](C(=O)Nc1ccc(F)cc1)c1ccccc1 (stereo partly shown)",
    "observed measurement": "37.28%"
  },
  {
    "compound": "Nc1ncc(-c2cnn(C3CCN(CCCN4CCN(C(=O)c5ccc6c(N7CCC(=O)NC7=O)coc6c5)CC4)CC3)c2)nc1C(=O)O[C@@H](C(=O)Nc1ccc(F)cc1)c1ccccc1",
    "observed measurement": "10.85%"
  },
  {
    "compound": "Nc1ncc(-c2cnn(C3CCN(CCCN4CCN(c5ccc6c(c5)C(=O)N(C5CCC(=O)NC5=O)C6=O)CC4)CC3)c2)nc1C(=O)N[C@@H](C(=O)Nc1ccc(F)cc1)c1ccccc1 (stereo partly shown)",
    "observed measurement": "−24.78%"
  },
  {
    "compound": "Nc1ncc(-c2cnn(C3CCN(CC4CCN(CC5CCN(C(=O)c6cccc(C(=O)NC7CCC(=O)NC7=O)c6)CC5)CC4)CC3)c2)nc1C(=O)O[C@@H](C(=O)Nc1ccc(F)cc1)c1ccccc1 (stereo partly shown)",
    "observed measurement": "28.77%"
  },
  {
    "compound": "Nc1ncc(-c2cnn(C3CCN(CCCN4CCN(C(=O)CNc5ccc6c(c5)C(=O)N(C5CCC(=O)NC5=O)C6=O)CC4)CC3)c2)nc1C(=O)N[C@@H](C(=O)Nc1ccc(F)cc1)c1ccccc1 (stereo partly shown)",
    "observed measurement": "−3.98%"
  },
  {
    "compound": "Nc1ncc(-c2cnn(C3CCN(CCC4CCN(C(=O)c5ccc6c(c5)CN(C5CCC(=O)NC5=O)C6=O)CC4)CC3)c2)nc1C(=O)O[C@@H](C(=O)Nc1ccc(F)cc1)c1ccccc1 (stereo partly shown)",
    "observed measurement": "19.80%"
  },
  {
    "compound": "COc1ccc(C(=O)N2CCC(CN3CCC(CN4CCC(n5cc(-c6cnc(N)c(C(=O)O[C@@H](C(=O)Nc7ccc(F)cc7)c7ccccc7)n6)cn5)CC4)CC3)CC2)cc1N1CCC(=O)NC1=O",
    "observed measurement": "21.83%"
  },
  {
    "compound": "Nc1ncc(-c2cnn(C3CCN(CCCN4CC5CC4CN5C(=O)COc4ccc5c(c4)C(=O)N(C4CCC(=O)NC4=O)C5=O)CC3)c2)nc1C(=O)O[C@@H](C(=O)Nc1ccc(F)cc1)c1ccccc1 (stereo partly shown)",
    "observed measurement": "49.41%"
  },
  {
    "compound": "Nc1ncc(-c2cnn(C3CCN(CC4CCN(CC5CCN(C(=O)c6ccc(C(=O)NC7CCC(=O)NC7=O)cc6)CC5)CC4)CC3)c2)nc1C(=O)O[C@@H](C(=O)Nc1ccc(F)cc1)c1ccccc1 (stereo partly shown)",
    "observed measurement": "30.33%"
  }
]

---

- experimental system: MLKL (Homo sapiens)
- Sequence (Q8NB16 1-471): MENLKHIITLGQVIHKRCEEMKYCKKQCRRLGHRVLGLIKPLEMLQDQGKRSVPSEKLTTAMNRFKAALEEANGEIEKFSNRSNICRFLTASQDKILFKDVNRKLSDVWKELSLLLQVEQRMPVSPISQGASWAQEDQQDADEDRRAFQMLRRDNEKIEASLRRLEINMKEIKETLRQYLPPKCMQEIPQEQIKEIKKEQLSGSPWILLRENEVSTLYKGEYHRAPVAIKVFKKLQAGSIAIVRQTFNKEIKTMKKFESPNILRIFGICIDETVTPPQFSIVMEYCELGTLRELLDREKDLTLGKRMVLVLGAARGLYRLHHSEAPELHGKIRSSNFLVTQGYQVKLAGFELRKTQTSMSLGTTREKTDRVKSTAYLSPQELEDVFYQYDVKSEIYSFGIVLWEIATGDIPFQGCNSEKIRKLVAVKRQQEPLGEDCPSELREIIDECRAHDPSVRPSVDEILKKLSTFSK
Could you mark each record rule met if its Kd falls strictly under 6 nM, and rule not met if it equals or exceeds it?

[
  {
    "compound": "Nc1ncc(C2=CCN(C(=O)CCCCCNC(=O)CNc3cccc4c3C(=O)N(C3CCC(=O)NC3=O)C4=O)CC2)cc1C(=O)O[C@@H](C(=O)Nc1ccc(F)cc1)c1ccccc1 (some centres unmarked)",
    "experimental system": "MLKL (Homo sapiens)",
    "class name": "rule not met"
  },
  {
    "compound": "Nc1ncc(-c2cnn(C3CN(CC4CCN(C(=O)COc5ccc6c(c5)C(=O)N(C5CCC(=O)NC5=O)C6=O)CC4)C3)c2)nc1C(=O)OC(C(=O)Nc1ccc(F)cc1)c1ccccc1 (centres unmarked)",
    "experimental system": "MLKL (Homo sapiens)",
    "class name": "rule not met"
  },
  {
    "compound": "Nc1ncc(-c2cnn([C@@H]3CCN(CC4CCN(C(=O)COc5ccc6c(c5)C(=O)N(C5CCC(=O)NC5=O)C6=O)CC4)C3)c2)nc1C(=O)O[C@@H](C(=O)Nc1ccc(F)cc1)c1ccccc1 (some centres unmarked)",
    "experimental system": "MLKL (Homo sapiens)",
    "class name": "rule met"
  },
  {
    "compound": "Nc1ncc(-c2cnn([C@H]3CCN(CC4CCN(C(=O)CNc5ccc6c(c5)C(=O)N(C5CCC(=O)NC5=O)C6=O)CC4)C3)c2)nc1C(=O)OC(C(=O)Nc1ccc(F)cc1)c1ccccc1 (some centres unmarked)",
    "experimental system": "MLKL (Homo sapiens)",
    "class name": "rule met"
  },
  {
    "compound": "Nc1ncc(-c2cnn(C3CCN(CCCN4CCN(c5cccc6c5C(=O)N(C5CCC(=O)NC5=O)C6=O)CC4)CC3)c2)nc1C(=O)OC(C(=O)Nc1ccc(F)cc1)c1ccccc1 (centres unmarked)",
    "experimental system": "MLKL (Homo sapiens)",
    "class name": "rule met"
  }
]
